- TESTED_TARGET: Recombinant human PDE4B (Homo sapiens (Human), UniProt Q07343)
- Sequence (Q07343 305-736 limits assumed): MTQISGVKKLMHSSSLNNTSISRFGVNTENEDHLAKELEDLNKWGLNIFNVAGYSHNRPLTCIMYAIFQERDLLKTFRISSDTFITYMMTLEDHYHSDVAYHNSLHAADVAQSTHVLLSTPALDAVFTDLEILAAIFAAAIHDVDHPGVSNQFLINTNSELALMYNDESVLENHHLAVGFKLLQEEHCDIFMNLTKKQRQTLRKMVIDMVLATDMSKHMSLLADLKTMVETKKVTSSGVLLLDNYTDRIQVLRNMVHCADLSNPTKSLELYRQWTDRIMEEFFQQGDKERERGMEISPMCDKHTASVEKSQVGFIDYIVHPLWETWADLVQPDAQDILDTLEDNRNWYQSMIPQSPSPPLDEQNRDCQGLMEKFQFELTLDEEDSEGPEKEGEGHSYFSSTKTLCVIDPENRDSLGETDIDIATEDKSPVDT
- METHOD_NOTES: Inhibitory activity against PDE 4B in vitro (fluorescence polarization, Transcreener AMP2/GMP2)
- APPLIED_CONDITIONS: 1 μM cAMP
READOUT_KIND: IC50 (nM)

CCOC(=O)Cn1c(=O)n([C@H](CS(C)(=O)=O)c2ccc(OC)c(OCC)c2)c2ncc(Br)cc21	3.4
CCOc1cc([C@@H](CS(C)(=O)=O)n2c(=O)n(C3CC3)c3cc(Br)cnc32)ccc1OC	6.5
CCOc1cc([C@@H](CS(C)(=O)=O)n2c(=O)[nH]c3c(-c4cnn(C)c4)ccnc32)ccc1OC	18.5
CCOc1cc([C@@H](CS(C)(=O)=O)n2c(=O)[nH]c3cc(F)cnc32)ccc1OC	10.6
CCOc1cc([C@@H](CS(C)(=O)=O)n2c(=O)[nH]c3cc(-c4cncnc4C)cnc32)ccc1OC	14.8
CCOc1cc([C@@H](CS(C)(=O)=O)n2c(=O)[nH]c3cc(CC(C)C)cnc32)ccc1OC	4.89
CCOc1cc([C@@H](CS(C)(=O)=O)n2c(=O)[nH]c3cc(-c4cn[nH]c4)cnc32)ccc1OC	3.38

a. CCOc1cc([C@@H](CS(C)(=O)=O)n2c(=O)n(CC(F)F)c3cc(F)cnc32)ccc1OC
b. CCOc1cc([C@@H](CS(C)(=O)=O)n2c(=O)n(Cc3ccccc3F)c3cc(Br)cnc32)ccc1OC
c. CCOc1cc([C@@H](CS(C)(=O)=O)n2c(=O)[nH]c3cc(-c4nccnc4C)cnc32)ccc1OC
d. CCOc1cc(C(CS(C)(=O)=O)n2c(=O)[nH]c3c(C)c(-c4ccccc4)cnc32)ccc1OC(F)F (stereo not drawn)
e. CCOc1cc([C@@H](CS(C)(=O)=O)n2c(=O)[nH]c3cc(Cl)cnc32)ccc1OC
Give the ascending ranking of the items by reported IC50. Please express your ranking as an ordered list of the labels.
d, b, e, c, a

Recorded values, source patent US10662189B2.
